This section presents binders with their documented kon values.
experimental_system: T1, soluble FGFR1c receptor protein (human, UniProt P11362 141-376)
T1 sequence: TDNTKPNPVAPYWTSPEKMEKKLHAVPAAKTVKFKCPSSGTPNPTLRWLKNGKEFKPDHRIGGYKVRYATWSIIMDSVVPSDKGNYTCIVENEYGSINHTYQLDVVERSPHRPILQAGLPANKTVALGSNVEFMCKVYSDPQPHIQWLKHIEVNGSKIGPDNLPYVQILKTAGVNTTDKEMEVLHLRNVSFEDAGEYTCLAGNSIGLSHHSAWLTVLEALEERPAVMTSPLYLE
test_name: BLI Octet RED96, antibody on anti-hIgG Fc tip
quantity: kon

>  <binder>
Vk3 combined with the VH of Ab15 (antibody, V domains shown, captured on anti-human IgG Fc tips) VH: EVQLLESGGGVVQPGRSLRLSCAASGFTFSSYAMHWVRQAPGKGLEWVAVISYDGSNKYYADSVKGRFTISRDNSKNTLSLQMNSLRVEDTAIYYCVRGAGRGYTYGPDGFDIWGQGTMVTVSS VL: DIVMTQTPLSLSVTPGQPASISCTSSRSLLHSDGKTYVYWYLQKSGQPPQLLIYELSNRFSGVPDRFSGSGSRTDFTLKISRVEAEDVGVYYCMQYIEAPLTFGGGTKVEIK

>  <measured>
54600 M⁻¹ s⁻¹

$$$$
>  <binder>
Ab90 (antibody, human IgG2, kappa, V domains shown, format in the assays not spelled out) VH: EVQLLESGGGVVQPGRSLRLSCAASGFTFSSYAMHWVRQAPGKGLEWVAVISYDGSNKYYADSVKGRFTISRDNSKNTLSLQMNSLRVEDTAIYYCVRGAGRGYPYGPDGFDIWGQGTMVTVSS VL: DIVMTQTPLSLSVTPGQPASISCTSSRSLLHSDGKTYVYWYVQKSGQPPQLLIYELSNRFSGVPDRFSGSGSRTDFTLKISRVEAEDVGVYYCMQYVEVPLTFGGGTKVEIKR

>  <measured>
85100 M⁻¹ s⁻¹

$$$$
>  <binder>
Vk9 combined with the VH of Ab15 (antibody, V domains shown, captured on anti-human IgG Fc tips) VH: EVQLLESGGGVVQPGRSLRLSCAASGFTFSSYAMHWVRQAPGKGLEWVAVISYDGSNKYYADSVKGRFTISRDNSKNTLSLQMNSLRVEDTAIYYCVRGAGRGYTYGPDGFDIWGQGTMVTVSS VL: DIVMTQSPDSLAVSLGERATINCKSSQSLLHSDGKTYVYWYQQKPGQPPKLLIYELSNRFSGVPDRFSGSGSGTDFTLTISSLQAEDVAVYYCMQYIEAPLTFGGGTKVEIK

>  <measured>
57200 M⁻¹ s⁻¹

$$$$

FYI, the data here is from patent US20180244785A1.
